# ASSAY: qHTS assay to test for compound auto fluorescence at 535 nm (green) in HEK293 cells (AID 720680)
# RECORDED CONDITIONS: green autofluorescence 485/535 nm; series mostly up to 46 µM
# Text: U.S. Tox21 Program National Center for Advancing Translational Sciences [NCATS] NIH Chemical Genomics Center [NCGC] U.S. Environmental Protection Agency [EPA] National Institutes of Environmental Health Sciences [NIEHS] National Toxicology Program [NTP] U.S. Food and Drug Administration [FDA] Tox21 Assay Overview: Compound auto fluorescence often interferes with screening of the compound library against various biological targets and signaling pathways. […] This assay includes the green fluorescence data. […]
Activity calls are given as the source filed them. The call rests on the fitted dose curve; in most records, active means well fitted curve in the direction sought with a large enough effect in the repeat runs; inconclusive means weak or mixed curves; inactive means flat fitted curve, though single readings scatter.
Hello, when you answer, please use one of the following outcomes: active, inactive

Check out these entries, answers already filled in.
[[record]]
molecule = "CCN(CC)Cc1cc(Nc2ccnc3cc(Cl)ccc23)ccc1O"
category_label = "inactive"

[[record]]
molecule = "CCCCCCCCCCCCCCCC(=O)OC[C@@H](O)[C@H]1OC[C@H](O)[C@H]1O"
category_label = "inactive"

[[record]]
molecule = "CC(=O)N(CC(C)C(=O)O)c1c(I)cc(I)c(N)c1I (centres undefined)"
category_label = "inactive"


Asked: Given `CCC(=O)O[C@@H]1CC(=O)O[C@H](C)C/C=C/C=C/[C@H](O)[C@H](C)C[C@H](CC=O)[C@H](O[C@@H]2O[C@H](C)[C@@H](O[C@H]3C[C@@](C)(O)[C@@H](OC(=O)CC)[C@H](C)O3)[C@H](N(C)C)[C@H]2O)[C@H]1OC` , state the outcome it received in this test.
Given back: inactive

Asked: Given O=C(O)CN(CC(=O)O)CC1=CC2C(=CC1=O)Oc1cc(O)c(CN(CC(=O)O)CC(=O)O)cc1C21OC(=O)c2ccccc21 (centres undefined) , state the outcome it received in this test.
Given back: active

Asked: Given CN[C@@H]1[C@@H](O)[C@@H](O[C@@H]2[C@@H](O)[C@H](O[C@H]3O[C@H](CN)[C@@H](O)[C@H](O)[C@H]3O)[C@@H](N)C[C@H]2NC(=O)C(O)CN)OC[C@]1(C)O (some centres undefined) , state the outcome it received in this test.
Given back: inactive

Asked: Given COc1ccc(CCNCC(O)COc2cccc(C)c2)cc1OC (centres undefined) , state the outcome it received in this test.
Given back: inactive

Asked: Given `OC[C@H]1O[C@@H](n2cnc3c2NC=NC[C@H]3O)C[C@@H]1O` , state the outcome it received in this test.
Given back: inactive

###

# ASSAY: qHTS assay to identify small molecule antagonists of the estrogen receptor alpha (ER-alpha) signaling pathway using the BG1 cell line (AID 743080);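 further: BG1 cells stimulated with 17beta-estradiol alongside compound; nearly all actives have a fitted effect of over 25% in size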
# RECORDED CONDITIONS: BG1Luc4E2 ERE-luciferase antagonist mode, luminescence; series mostly up to 70.3 µM
# Text: National Center for Advancing Translational Sciences [NCATS] NIH Chemical Genomics Center [NCGC] U.S. Environmental Protection Agency [EPA] National Institutes of Environmental Health Sciences [NIEHS] National Toxicology Program [NTP] U.S. Food and Drug Administration [FDA] Estrogen receptor (ER), a nuclear hormone receptor, plays an important role in development, metabolic homeostasis and reproduction. […]
Records with an inconclusive call do not appear. Activity calls are given as the source filed them. Calls come from the whole dose curve.
Hello, when you answer, please use one of the following outcomes: active, inactive

Asked: Given `C=C[C@]1(C)C[C@@H](OC(=O)CSCCN(CC)CC)[C@]2(C)[C@H](C)CC[C@]3(CCC(=O)[C@H]32)[C@@H](C)[C@@H]1O` , state the outcome it received in this test.
Given back: inactive

Asked: Given COc1ccc2c(c1)OC(C)(C)C(c1ccccc1)C2c1ccc(OCCN2CCCC2)cc1 (stereo unspecified) , state the outcome it received in this test.
Given back: inactive

Asked: Given `Cc1nc(NS(=O)(=O)c2ccc(N)cc2)nc(C)c1Br` , state the outcome it received in this test.
Given back: inactive

Asked: Given `C=CC[C@@H]1/C=C(\C)C[C@H](C)C[C@H](OC)[C@H]2O[C@@](O)(C(=O)C(=O)N3CCCC[C@H]3C(=O)O[C@H](/C(C)=C/[C@@H]3CC[C@@H](O)[C@H](OC)C3)[C@H](C)[C@@H](O)CC1=O)[C@H](C)C[C@@H]2OC` , state the outcome it received in this test.
Given back: inactive
